Reported EC50, 5-hydroxytryptamine receptor 1A (Homo sapiens, UniProt P08908).
Please give a number only; it is taken to be in nM.

compound	EC50, nM
N#Cc1ccc2[nH]cc(CCCCN3CCN(c4ccc(C(=O)CCC5CCN(Cc6cc[nH]c6)CC5)cc4)CC3)c2c1	22.2
N#Cc1ccc2[nH]cc(CCCCN3CCN(c4cccc5c4C(=O)C(CC4CCN(Cc6ccccc6)CC4)C5)CC3)c2c1 (stereo unspecified)	36
N#Cc1ccc2[nH]cc(CCCCN3CCN(c4ccc(C(=O)CCC5CCN(Cc6ccoc6)CC5)cc4)CC3)c2c1	19
N#Cc1ccc2[nH]cc(CCN3CCN(c4ccc(C(=O)CCC5CCN(Cc6cccnc6)CC5)cc4)CC3)c2c1	547

Ask: Write down the reported EC50 of `N#Cc1ccc2[nH]cc(CCCCN3CCN(c4ccc(C(=O)CCC5CCN(Cc6ccc(F)cc6)CC5)cc4)CC3)c2c1` , test system: 5-hydroxytryptamine receptor 1A (Homo sapiens, UniProt P08908).
Sequence (P08908 whole entry): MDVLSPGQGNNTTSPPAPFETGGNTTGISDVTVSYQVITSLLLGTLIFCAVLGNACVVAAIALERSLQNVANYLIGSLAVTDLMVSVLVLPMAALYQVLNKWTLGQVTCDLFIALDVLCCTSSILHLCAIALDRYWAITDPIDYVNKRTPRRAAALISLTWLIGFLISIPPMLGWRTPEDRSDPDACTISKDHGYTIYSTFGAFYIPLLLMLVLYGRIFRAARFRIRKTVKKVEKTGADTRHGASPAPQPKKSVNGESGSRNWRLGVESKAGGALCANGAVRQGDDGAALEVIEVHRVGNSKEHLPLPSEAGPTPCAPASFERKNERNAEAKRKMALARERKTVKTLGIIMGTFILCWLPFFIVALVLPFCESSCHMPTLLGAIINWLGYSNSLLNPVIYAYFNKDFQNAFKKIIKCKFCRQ
Reply: 162

Ask: Record `C#CCN1CCC(CCC(=O)c2ccc(N3CCN(CCCCc4c[nH]c5ccc(C#N)cc45)CC3)cc2)CC1` : what is its EC50 with 5-hydroxytryptamine receptor 1A (Homo sapiens, UniProt P08908)?
Reply: 29

Ask: Request: EC50, test system 5-hydroxytryptamine receptor 1A (Homo sapiens, UniProt P08908), entry N#Cc1ccc2[nH]cc(CCCN3CCN(c4ccc5c(c4)CC(CC4CCN(Cc6ccccc6)CC4)C5=O)CC3)c2c1 (stereo unspecified)
Reply: 316

Ask: Given the entry `N#Cc1ccc2[nH]cc(CCCCN3CCN(c4ccc(C(=O)CCC5CCN(Cc6ccsc6)CC5)cc4)CC3)c2c1` , what EC50 was observed with 5-hydroxytryptamine receptor 1A (Homo sapiens, UniProt P08908)?
Reply: 66.6
